- System: NCI-H23 lung
- testName: NCI tumour cell line growth inhibition, 48 h
endpoint: GI50

> print(dat)
                                    compound  endpoint  resultvalue
 1  c1ccc(N2N=C(c3cccc(Nc4ccncc4)c3)CC2c2ccc3c(c2)OCO3)cc1 (stereo not given)      GI50      1.94 µM
 2  CCN(CC)CCNc1ccc(C)c2sc3cc(Cl)ccc3c(=O)c12      GI50       1.7 µM
 3  COc1ccc(C(=O)Nc2ncc(Cc3cccc(Cl)c3)s2)cc1OC      GI50      2.51 µM
 4  Cc1ccc(Cl)cc1Nc1nc(C(F)(F)F)ccc1C(=O)N/N=C/c1cccnc1      GI50       5.6 µM
 5  Nc1ccccc1NC(=O)c1ccc(CNc2nccc(-c3cccnc3)n2)cc1      GI50       1.4 µM
 6     Cc1cccc(-c2[nH]ncc2-c2ccc3ncccc3n2)n1      GI50      14.2 µM
 7  Cn1cc(C2=C(c3ccccc3[N+](=O)[O-])C(=O)NC2=O)c2ccccc21      GI50      7.25 µM
 8  CN(C)c1ccc(/C=C/C(=O)[O-])cc1.CN(C)c1ccc(/C=C/C(=O)[O-])cc1.[Cu+2]      GI50     > 100 µM
 9                    NC1=CC(=O)c2cccnc2C1=O      GI50      1.34 µM
10  CO/C=C/C(=O)c1cc2cnc3c(=N)cc(NC(=O)C(C)C)c([nH]1)c23      GI50    0.0432 µM

###

Measured TGI by item
- Test system: RXF 393 renal
- testName: NCI tumour cell line growth inhibition, 48 h

molecule	valueUnit	censoringOperator	TGI
CCN(CC)Cc1cc(Nc2c3ccccc3nc3c2[nH]c2ccccc23)cc(CN(CC)CC)c1O	µM	=	1.25
C=CCNC(=S)N=Nc1c(O)n(CN2CCOCC2)c2ccc([N+](=O)[O-])cc12	µM	>	100
COC(=O)[C@@H](C)C[C@H](Cc1cn(C)c2ccccc12)NC(=O)c1csc([C@@H](C[C@H](C(C)C)N(C)C(=O)[C@@H](NC(=O)[C@H]2CCCCN2C)C(C)C)OC(C)=O)n1	µM	>	16.7
COc1ccc(C(=O)Nc2ncc(Cc3cccc(Cl)c3)s2)cc1OC	µM	=	6.54
COc1ccc2c(c1O)-c1cc(O)cc3c1[C@@H](C2)N(C)CC3	µM	=	119
CC1(C)CC(O)C2=C(O1)C(=O)c1ncccc1C2=O (stereo not given)	µM	=	12.3
CN1C(=O)CCC2[C@@H]3CC=C4C[C@@H](O)CC[C@]4(C)C3CC[C@@]21C (stereo not given in full)	µM	>	100
COc1ccc2sc3cccc(NCCN(C)C)c3c(=O)c2c1	µM	=	9.76
CCOC(=O)C1SC(=Nc2cccc(Cl)c2C)N=C1C (stereo not given)	µM	>	100
Cc1c(C)c(C)c(CC2(C)CSC2)c(CC2(C)CSC2)c1C	µM	>	100
CC(=O)OC(CN1CCN(c2ccccn2)CC1)Cn1sc2nc(C)cc(C)c2c1=O (stereo not given)	µM	=	35.6
c1ccc2c(CN3CCN(Cc4c[nH]c5ccccc45)CC3)c[nH]c2c1	µM	=	28.8
COc1ccc2c(c1)[n+]([O-])c(-c1ccc([N+](=O)[O-])cc1)c(N)[n+]2[O-]	µM	>	100
COc1cc(C2S/C(=C/c3ccccc3)C(=O)N2c2ccc(NC(C)=O)cc2)cc(OC)c1OC (stereo not given)	µM	=	63
CC(C)C1OC(N)=C(C#N)C1(C#N)C#N (stereo not given)	µM	>	100
CCN(CC)CC(C)(C)C(=O)/C=C/c1cccc(/C=C/C(=O)C(C)(C)CN(CC)CC)c1	µM	=	1.49
Cc1cc([N+](=O)[O-])ccc1Sc1c2ccccc2nc2cc(Cl)ccc12	µM	>	100
COc1ccc(/C=C(/C(=O)N2CCN(c3ccccc3)CC2)c2cc(OC)c(OC)c(OC)c2)cc1N	µM	>	100
COc1ccc(N=Cc2c(O)ccc3c2oc2cc(Cl)c(O)c(Cl)c23)cc1	µM	=	31.4
Nc1cc(F)ccc1CC(=O)O	µM	>	100
